GSK3β fold selectivity listing for selected compounds.
assay.system: GSK3β (Homo sapiens)
Sequence (P49841 whole entry): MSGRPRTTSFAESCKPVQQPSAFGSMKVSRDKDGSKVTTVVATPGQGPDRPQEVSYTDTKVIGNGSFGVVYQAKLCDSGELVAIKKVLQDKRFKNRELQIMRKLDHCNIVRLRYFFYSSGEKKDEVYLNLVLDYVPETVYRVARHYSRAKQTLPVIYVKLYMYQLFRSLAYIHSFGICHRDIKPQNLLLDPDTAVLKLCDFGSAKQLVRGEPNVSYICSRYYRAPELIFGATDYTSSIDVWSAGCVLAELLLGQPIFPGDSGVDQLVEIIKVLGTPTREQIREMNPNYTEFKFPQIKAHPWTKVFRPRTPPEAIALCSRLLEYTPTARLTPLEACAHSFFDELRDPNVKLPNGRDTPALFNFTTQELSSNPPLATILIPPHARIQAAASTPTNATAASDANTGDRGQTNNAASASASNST
condition.info: Caliper assay; GSK3β over GSK3α
Give the number; fold is assumed, so skip it.

Study these solved cases before continuing.
compound	GSK3β fold selectivity [fold]
CCC1(c2ccccc2)C2=C(CC(C)(C)CC2=O)Nc2n[nH]c(CC(C)(C)C)c21 (stereo not shown) [Compound 274]	3.4
CC(C)c1[nH]nc2c1[C@@](C)(c1ccccc1F)C1=C(CC(C)(C)CC1=O)N2 (stereo in doubt) [Compound 313]	11.3
CC1(C)CC(=O)C2=C(C1)Nc1n[nH]c(C3CC(F)(F)C3)c1C2(C)c1cccc(C(F)(F)F)c1 (racemic) [Compound 247]	1.6
CC(C)Cc1[nH]nc2c1[C@@](C)(c1ccccc1)C1=C(CC(C)(C)CC1=O)N2 (stereo in doubt) [Compound 308]	5.5
CC(C)c1[nH]nc2c1[C@](C)(c1ccccc1Cl)C1=C(CC(C)(C)CC1=O)N2 (stereo in doubt) [Compound 316]	8.9

q: # assay system GSK3β (Homo sapiens): give GSK3β fold selectivity of CCC(C)(C)Cc1[nH]nc2c1[C@@]1(CCc3cc(F)ccc31)C1=C(CC(C)(C)CC1=O)N2 (stereo in doubt) [Compound 293]
a: 11.3

q: Report measured GSK3β fold selectivity on GSK3β (Homo sapiens); entry: CC1(C)CC(=O)C2=C(C1)Nc1n[nH]c(C3CC(F)(F)C3)c1[C@@]2(C)c1cccc(C(F)(F)F)c1 (stereo in doubt) [Compound 249]
a: 3.1
